Can you tell me cytotoxicity at 72 h, 0.045 µM for the items I'm about to list?
Experiment: In vitro cytotoxicity by MTT assay, HEK 293
Type: cell-based, human
Details: human, HEK 293 cells, 0.045 μM, read-out: % cytotoxicity (100 − % cell survival) of HEK 293 cell line
The reply should contain only the number, in %.

For `Nc1ccc(S(=O)(=O)Nc2nnc(S(=O)(=O)NC(=O)c3ccccc3O)s2)cc1` the compound record lists cytotoxicity at 72 h, 0.045 µM as 20.3

For `CN(C)c1ccc(C=Nc2nnc(S(=O)(=O)NC(=O)c3ccccc3)s2)cc1` the compound record lists cytotoxicity at 72 h, 0.045 µM as 34.5

For `O=C(NS(=O)(=O)c1nnc(N=Cc2ccccc2)s1)c1ccccc1` the compound record lists cytotoxicity at 72 h, 0.045 µM as 39.8

For `Nc1ccc(S(=O)(=O)Nc2nnc(S(=O)(=O)NC(=O)c3ccc(Cl)cc3)s2)cc1` the compound record lists cytotoxicity at 72 h, 0.045 µM as 33.3

For `Nc1ccc(C(=O)NS(=O)(=O)c2nnc(NS(=O)(=O)c3ccc(N)cc3)s2)cc1` the compound record lists cytotoxicity at 72 h, 0.045 µM as 40.6

For `COc1ccccc1C=Nc1nnc(S(=O)(=O)NC(=O)c2ccccc2)s1` the compound record lists cytotoxicity at 72 h, 0.045 µM as 40.3

For `CC(=O)Nc1ccc(S(=O)(=O)Nc2nnc(S(=O)(=O)NC(=O)c3ccc(Cl)cc3)s2)cc1` the compound record lists cytotoxicity at 72 h, 0.045 µM as 18

For `O=C(NS(=O)(=O)c1nnc(N=Cc2ccc(Cl)cc2)s1)c1ccccc1` the compound record lists cytotoxicity at 72 h, 0.045 µM as 34.6

* * *

System: BT474 (breast cancer cell line)
Assay: In vitro cytotoxicity by MTT assay, BT474
Format: cell-based
Details: Homo sapiens, BT-474, 0.045 μM, 72 h, read-out: % cytotoxicity (100 − % cell survival) of BT474 cell line
Hi, to clarify the labels: condition met covers cytotoxicity at 0.045 µM from 30% upward, condition not met covers anything below 30%.

Prompt: I'd appreciate it if you could say whether Nc1ccc(C(=O)NS(=O)(=O)c2nnc(NS(=O)(=O)c3ccc(N)cc3)s2)cc1 [Compound 7c] has cytotoxicity at 0.045 µM at least equal to 30%.
Completion: condition not met

Prompt: I'd appreciate it if you could say whether CC(=O)Nc1ccc(S(=O)(=O)Nc2nnc(S(=O)(=O)NC(=O)c3ccc(N)cc3)s2)cc1 [Compound 6c] has cytotoxicity at 0.045 µM at least equal to 30%.
Completion: condition met

Prompt: I'd appreciate it if you could say whether Nc1nnc(S(=O)(=O)NC(=O)c2ccc([N+](=O)[O-])cc2)s1 [Compound 4e] has cytotoxicity at 0.045 µM at least equal to 30%.
Completion: condition met

Prompt: I'd appreciate it if you could say whether Nc1ccc(S(=O)(=O)Nc2nnc(S(=O)(=O)NC(=O)c3ccccc3)s2)cc1 [Compound 7a] has cytotoxicity at 0.045 µM at least equal to 30%.
Completion: condition met

Prompt: I'd appreciate it if you could say whether Nc1nnc(S(=O)(=O)NC(=O)c2ccccc2N)s1 [Compound 4b] has cytotoxicity at 0.045 µM at least equal to 30%.
Completion: condition not met

Prompt: I'd appreciate it if you could say whether Nc1ccc(S(=O)(=O)Nc2nnc(S(=O)(=O)NC(=O)c3cccc([N+](=O)[O-])c3)s2)cc1 [Compound 7f] has cytotoxicity at 0.045 µM at least equal to 30%.
Completion: condition met

* * *

Assay: In vitro cytotoxicity by MTT assay, HEK 293
Assay type: cell-based, human
Conditions: human, HEK 293 cells, 11.11 μM, read-out: % cytotoxicity (100 − % cell survival) of HEK 293 cell line
test_readout: cytotoxicity at 72 h, 11.11 µM

For CC(=O)Nc1ccc(S(=O)(=O)Nc2nnc(S(=O)(=O)NC(=O)c3ccccc3)s2)cc1 [Compound 6a] the molecule record lists cytotoxicity at 72 h, 11.11 µM as 35%

For O=C(NS(=O)(=O)c1nnc(N=Cc2ccccc2)s1)c1ccccc1 [Compound 9a] the molecule record lists cytotoxicity at 72 h, 11.11 µM as 45.6%

For CC(=O)Nc1ccc(S(=O)(=O)Nc2nnc(S(=O)(=O)NC(=O)c3ccc(Cl)cc3)s2)cc1 [Compound 6g] the molecule record lists cytotoxicity at 72 h, 11.11 µM as 26.1%

For COc1ccccc1C=Nc1nnc(S(=O)(=O)NC(=O)c2ccccc2)s1 [Compound 9c] the molecule record lists cytotoxicity at 72 h, 11.11 µM as 45.9%

For CC(=O)Nc1ccc(S(=O)(=O)Nc2nnc(S(=O)(=O)NC(=O)c3cccc([N+](=O)[O-])c3)s2)cc1 [Compound 6f] the molecule record lists cytotoxicity at 72 h, 11.11 µM as 58.6%

For Nc1nnc(S(=O)(=O)NC(=O)c2cccc([N+](=O)[O-])c2)s1 [Compound 4f] the molecule record lists cytotoxicity at 72 h, 11.11 µM as 30.7%

For CN(C)c1ccc(C=Nc2nnc(S(=O)(=O)NC(=O)c3ccccc3)s2)cc1 [Compound 9h] the molecule record lists cytotoxicity at 72 h, 11.11 µM as 36.2%

For Nc1ccc(S(=O)(=O)Nc2nnc(S(=O)(=O)NC(=O)c3ccccc3)s2)cc1 [Compound 7a] the molecule record lists cytotoxicity at 72 h, 11.11 µM as 33.5%

* * *

Experiment: In vitro cytotoxicity by MTT assay, HEK 293
Type: cell-based, human
Details: human, HEK 293 cells, 0.005 μM, read-out: % cytotoxicity (100 − % cell survival) of HEK 293 cell line
Protocol: The cancer cell line cultures of HEK 293 ([…]), BT474 (breast cancer cell line) and NCI-H226 (lung cancer) were obtained from Pasteur Institute of India, Coonoor, India, and were cultured in RPMI-1640 and 10 % heat-[…] New born calf serum with antibiotics [penicillin ([…]), streptomycin (100 μg/mL) and amphotericin B (25 μg/mL)]. The cells were maintained at 37 °C in a humidified atmosphere with 5 % CO2 and were subcultured twice a week. […]
Can you tell me cytotoxicity at 72 h, 0.005 µM for the items I'm about to list?
The reply should contain only the number, in %.

For `CC(=O)Nc1ccc(S(=O)(=O)Nc2nnc(S(=O)(=O)NC(=O)c3ccccc3)s2)cc1` the compound record lists cytotoxicity at 72 h, 0.005 µM as 26.5

For `Nc1ccc(S(=O)(=O)Nc2nnc(S(=O)(=O)NC(=O)c3ccc(Cl)cc3)s2)cc1` the compound record lists cytotoxicity at 72 h, 0.005 µM as 29.1

For `Nc1ccc(C(=O)NS(=O)(=O)c2nnc(NS(=O)(=O)c3ccc(N)cc3)s2)cc1` the compound record lists cytotoxicity at 72 h, 0.005 µM as 36.5

For `Nc1nnc(S(=O)(=O)NC(=O)c2ccc([N+](=O)[O-])cc2)s1` the compound record lists cytotoxicity at 72 h, 0.005 µM as 30.6

* * *

System: HEK 293, M468 and NCI-H226
Test: In vitro cytotoxicity by MTT assay, summary over all cell lines
Format: cell-based
Conditions: on all cell lines
Method: The cancer cell line cultures of HEK 293 ([…]), BT474 (breast cancer cell line) and NCI-H226 (lung cancer) were obtained from Pasteur Institute of India, Coonoor, India, and were cultured in RPMI-1640 and 10 % heat-[…] New born calf serum with antibiotics [penicillin ([…]), streptomycin (100 μg/mL) and amphotericin B (25 μg/mL)]. The cells were maintained at 37 °C in a humidified atmosphere with 5 % CO2 and were subcultured twice a week. […]
test_readout: cytotoxic activity compared with all synthesized compounds

Example entries begin here.
{"compound": "Nc1nnc(S(=O)(=O)NC(=O)c2ccccc2)s1 [Compound 4a]", "result": "less activity"}
{"compound": "CC(=O)Nc1ccc(S(=O)(=O)Nc2nnc(S(=O)(=O)NC(=O)c3cccc([N+](=O)[O-])c3)s2)cc1 [Compound 6f]", "result": "more potent"}
{"compound": "COc1ccccc1C=Nc1nnc(S(=O)(=O)NC(=O)c2ccccc2)s1 [Compound 9c]", "result": "more potent"}
{"compound": "Nc1ccc(S(=O)(=O)Nc2nnc(S(=O)(=O)NC(=O)c3cccc([N+](=O)[O-])c3)s2)cc1 [Compound 7f]", "result": "more potent"}
{"compound": "O=C(NS(=O)(=O)c1nnc(N=Cc2ccc(Cl)cc2)s1)c1ccccc1 [Compound 9b]", "result": "more potent"}

For COc1cc(C=Nc2nnc(S(=O)(=O)NC(=O)c3ccccc3)s2)ccc1O [Compound 9g] the compound record lists cytotoxic activity compared with all synthesized compounds as less activity

For CC(=O)Nc1ccc(S(=O)(=O)Nc2nnc(S(=O)(=O)NC(=O)c3ccc([N+](=O)[O-])cc3)s2)cc1 [Compound 6e] the compound record lists cytotoxic activity compared with all synthesized compounds as moderate activity

For CC(=O)Nc1ccc(S(=O)(=O)Nc2nnc(S(=O)(=O)NC(=O)c3ccccc3N)s2)cc1 [Compound 6b] the compound record lists cytotoxic activity compared with all synthesized compounds as moderate activity

For O=C(NS(=O)(=O)c1nnc(N=Cc2ccco2)s1)c1ccccc1 [Compound 9j] the compound record lists cytotoxic activity compared with all synthesized compounds as more potent
